Cited source: patent EP4680608B1

Measured pEC50, listed per entry for reference.
# System: P. falciparum 3D7
# protocol text: Asexual blood-stage growth inhibition assay, SYBR green method
# Type: cell-based
# condition context: Plasmodium falciparum, 3D7, 72 h, ring-stage 3D7 parasites
# Protocol: Asexual blood-stage EC50 assays. […] Compound stocks prepared in DMSO were plated using a Tecan D300e automated low volume liquid handler. […] Data were analyzed by non-linear regression using GraphPad Prism to determine the EC50 by fitting to the built-in equation (log(inhibitor) vs response-variable slope with four parameters).
pEC50: −log10 of the molar value.
value type: pEC50

compound="Cn1nc2c(=O)n(C3CC3)ccc2c1[C@](C)(N)c1ccc(C(F)(F)F)c(Cl)c1 (single isomer, unassigned)" value_observed=9.21
compound="Cn1nc2c(=O)n(C3CC3)ncc2c1[C@](O)(c1ccc(C(F)(F)F)c(Cl)c1)C1CC1 (single isomer, unassigned)" value_observed=8.72
compound="Cn1nc2c(=O)n(C3CC3)ccc2c1[C@](N)(c1cnc(C(F)(F)F)c(Cl)c1)C(F)(F)F (single isomer, unassigned)" value_observed=8.59
compound="CC[C@@](O)(c1cnc(C(F)(F)F)c(Cl)c1)c1c2cnn(C3CC3)c(=O)c2nn1C1CC1 (single isomer, unassigned)" value_observed=7.92
compound="CC[C@@](O)(c1cnc(C(F)(F)F)c(Cl)c1)c1c2ccn(C3CC3)c(=O)c2nn1C (single isomer, unassigned)" value_observed=9.19
compound="CC[C@@](O)(c1ccc(C(F)(F)F)nc1)c1c2ncn(C3CC3)c(=O)c2nn1C (single isomer, unassigned)" value_observed=8.80
compound="CCC(O)(c1cnc(C(F)(F)F)c(Cl)c1)c1c2cc(C)n(C3CC3)c(=O)c2nn1C (stereo not shown)" value_observed=8.19

---

# target desc: Human DHODH (Homo sapiens)
# Construct: C-terminal His6-tagged HsDHODH residues 29-395 in pET-22b (start ^29MATGDE); His6 (C)
# protocol text: DHODH inhibition, steady-state DCIP assay (human DHODH)
# condition context: recombinant HsDHODH, DCIP method, 25°C, 5 nM enzyme; top concentration 100 µM or 30 µM
pIC50: −log10 of the molar value.
Listed below: pIC50 values for each entry.
value type: pIC50

compound="CCn1cc(F)c2c([C@@](O)(CC)c3ccc(C(F)(F)F)nc3)n(C)nc2c1=O (single isomer, unassigned) [1-24]" lt_gt_eq== value_observed=5.21
compound="Cn1nc2c(=O)n(C3CC3)cnc2c1[C@](O)(c1ccc(C(F)F)c(C#N)c1)C(F)(F)F (single isomer, unassigned) [5-54]" lt_gt_eq=< value_observed=4.52
compound="CCn1nc2c(=O)n(C3CC3)ncc2c1[C@@](O)(CC)c1cnc(C(F)(F)F)c(Cl)c1 (single isomer, unassigned) [2-3]" lt_gt_eq== value_observed=5.57
compound="CCn1cc(C)c2c([C@H](N)c3ccc(C(F)(F)F)c(C#N)c3)n(C)nc2c1=O (single isomer, unassigned) [4-14]" lt_gt_eq=< value_observed=4.00
compound="CCn1ccc2c([C@@](O)(CC)c3ccc(F)c(Cl)c3)n(C)nc2c1=O (single isomer, unassigned) [1-34]" lt_gt_eq== value_observed=5.41
compound="Cn1nc2c(=O)n(C3CC3)ccc2c1[C@](N)(c1ccc(C(F)(F)F)c(C#N)c1)C(F)(F)F (single isomer, unassigned) [5-45]" lt_gt_eq== value_observed=4.52
compound="CC[C@@](O)(c1cnc(C(F)(F)F)c(Cl)c1)c1c2ncn(C3CC3)c(=O)c2nn1C (single isomer, unassigned) [3-5]" lt_gt_eq== value_observed=5.17
compound="Cn1nc2c(=O)n(C3CC3)ncc2c1[C@](O)(c1cnc(C(F)(F)F)c(Cl)c1)C(F)(F)F (single isomer, unassigned) [5-1]" lt_gt_eq=< value_observed=4.52
compound="Cn1nc2c(=O)n(C3CC3)ccc2c1[C@](O)(c1ccc(C(F)(F)F)nc1)C(F)(F)F (single isomer, unassigned) [5-11]" lt_gt_eq=< value_observed=4.52
compound="CC[C@@](O)(c1cc(F)c(Cl)c(F)c1)c1c2ccn(C3CC3)c(=O)c2nn1C (single isomer, unassigned) [1-20]" lt_gt_eq== value_observed=5.85
compound="Cn1nc2c(=O)n(C3CC3)ccc2c1[C@](O)(c1ccc(C(F)(F)F)c(Cl)c1)C(F)(F)F (stereo in doubt) [5-7]" lt_gt_eq== value_observed=5.33

---

# target desc: Human DHODH (Homo sapiens, UniProt Q02127)
# Construct: C-terminal His6-tagged HsDHODH residues 29-395 in pET-22b (start ^29MATGDE); His6 (C)
# Sequence (Q02127 29-395): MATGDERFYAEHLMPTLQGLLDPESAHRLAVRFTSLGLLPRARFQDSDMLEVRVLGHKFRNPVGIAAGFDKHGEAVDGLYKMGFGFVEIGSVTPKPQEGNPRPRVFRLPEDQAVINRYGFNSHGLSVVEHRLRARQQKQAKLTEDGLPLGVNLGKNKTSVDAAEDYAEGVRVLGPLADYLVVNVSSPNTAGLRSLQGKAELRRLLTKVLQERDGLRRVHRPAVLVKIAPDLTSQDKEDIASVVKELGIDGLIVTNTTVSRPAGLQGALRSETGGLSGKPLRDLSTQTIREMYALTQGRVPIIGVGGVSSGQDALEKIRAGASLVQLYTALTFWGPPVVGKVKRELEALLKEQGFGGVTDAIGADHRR
# protocol text: DHODH inhibition, steady-state DCIP assay (human DHODH)
# condition context: recombinant HsDHODH, DCIP method, 25°C, 5 nM enzyme; top concentration 100 µM or 30 µM
pIC50: −log10 of the molar value.
Mark No for pIC50 values under 5, and Yes for everything at or above.

compound="CC[C@@](N)(c1ccc(C(F)(F)F)c(Cl)c1)c1c2cnn(C3CC3)c(=O)c2nn1C (single isomer, unassigned)" class_assignment=Yes
compound="Cn1nc2c(=O)n(C3CC3)ccc2c1[C@](O)(c1cnc(C(F)(F)F)c(Cl)c1)C1CC1 (single isomer, unassigned)" class_assignment=No
compound="CC[C@@](O)(c1cnc(C(F)(F)F)c(Cl)c1)c1c2ccn(C3CC3)c(=O)c2nn1C (single isomer, unassigned)" class_assignment=Yes
compound="Cn1nc2c(=O)n(C3CC3)ncc2c1[C@](O)(c1ccc(C(F)(F)F)c(Cl)c1)C(F)(F)F (single isomer, unassigned)" class_assignment=No
compound="Cn1nc2c(=O)n(C3CC3)cnc2c1[C@](O)(c1ccc(C(F)(F)F)c(C#N)c1)C(F)(F)F (single isomer, unassigned)" class_assignment=No
compound="Cn1nc2c(=O)n(C3CC3)cnc2c1[C@](O)(c1cnc(C(F)(F)F)c(Cl)c1)C(F)F (single isomer, unassigned)" class_assignment=No
compound="Cn1nc2c(=O)n(C3CC3)ccc2c1[C@](C)(O)c1ccc(F)c(Cl)c1 (single isomer, unassigned)" class_assignment=No
compound="CC[C@@](O)(c1cnc(C(F)(F)F)c(Cl)c1)c1c2cnn(C3CC3)c(=O)c2nn1C1CC1 (single isomer, unassigned)" class_assignment=Yes
compound="Cn1nc2c(=O)n(C3CC3)ccc2c1[C@](O)(c1ccc(C(F)(F)F)c(C#N)c1)C1CC1 (single isomer, unassigned)" class_assignment=No
compound="Cn1nc2c(=O)n(C3CC3)ccc2c1[C@](C)(N)c1ccc(C(F)(F)F)c(Cl)c1 (single isomer, unassigned)" class_assignment=No
compound="CCn1ccc2c([C@@](O)(CC)c3ccc(C(F)(F)F)nc3)n(C)nc2c1=O (single isomer, unassigned)" class_assignment=No
compound="Cn1nc2c(=O)n(C3CC3)ncc2c1[C@](O)(c1cnc(C(F)(F)F)c(Cl)c1)C1CC1 (single isomer, unassigned)" class_assignment=No
compound="CC(C)[C@@](O)(c1cnc(C(F)(F)F)c(Cl)c1)c1c2ccn(C3CC3)c(=O)c2nn1C (single isomer, unassigned)" class_assignment=No

---

Listing of entries alongside the reported EC50.
# System: P. falciparum 3D7
# protocol text: Asexual blood-stage growth inhibition assay, SYBR green method
# Assay type: cell-based
# condition context: Plasmodium falciparum, 3D7, 72 h, ring-stage 3D7 parasites
value type: EC50 (nM)

compound="CC[C@@](N)(c1ccc(C(F)(F)F)c(Cl)c1)c1c2ccn(C3CC3)c(=O)c2nn1C (single isomer, unassigned)" value_observed=1.1
compound="Cn1nc2c(=O)n(C3CC3)cnc2c1[C@](O)(c1cnc(C(F)(F)F)c(C#N)c1)C(F)(F)F (single isomer, unassigned)" value_observed=11
compound="Cn1nc2c(=O)n(C3CC3)cnc2c1[C@](N)(c1ccc(C(F)(F)F)c(C#N)c1)C(F)(F)F (single isomer, unassigned)" value_observed=3.1

---

# System: P. falciparum 3D7
# protocol text: Asexual blood-stage growth inhibition assay, SYBR green method
# Assay type: cell-based
# condition context: Plasmodium falciparum, 3D7, 72 h, ring-stage 3D7 parasites
value type: EC50 (nM)

molecule="Cn1nc2c(=O)n(C3CC3)ncc2c1[C@](O)(c1ccc(C(F)(F)F)c(C#N)c1)C1CC1 (single isomer, unassigned) [2-7]" unit_descriptor=nM value_observed=4.2
molecule="Cn1nc2c(=O)n(C3CC3)ccc2c1[C@](N)(c1ccc(C(F)(F)F)c(Cl)c1)C(F)(F)F (single isomer, unassigned) [5-49]" unit_descriptor=nM value_observed=0.64
molecule="CC[C@@](O)(c1cnc(C(F)(F)F)c(Cl)c1)c1c2ncn(C3CC3)c(=O)c2nn1C (single isomer, unassigned) [3-5]" unit_descriptor=nM value_observed=0.94
molecule="Cn1nc2c(=O)n(C3CC3)cnc2c1[C@](O)(c1ccc(C(F)(F)F)nc1)C(F)(F)F (single isomer, unassigned) [5-21]" unit_descriptor=nM value_observed=2.1
molecule="CC[C@@](O)(c1ccc(C(F)(F)F)c(C#N)c1)c1c2ccn(C3CC3)c(=O)c2nn1C (single isomer, unassigned) [1-5]" unit_descriptor=nM value_observed=0.75
molecule="Cn1nc2c(=O)n(C3CC3)ccc2c1[C@](O)(c1ccc(F)c(Cl)c1)C1CC1 (single isomer, unassigned) [1-18]" unit_descriptor=nM value_observed=9
